In this section, each of the compounds is paired with its reported Bliss excess.
- Tested on: BPH-1 (Non-Cancerous);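 further: after 72 h of two-drug dosing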
- MEASUREMENT PROTOCOL: Bliss excess, mean over the matrix (fraction); higher = more synergy
Format: numeric value only, no unit, no commentary.

Look over these answered cases.
COMPOUND	RECORDED ENDPOINT	REPORTED RESULT
CCN(CCO)CCCOc1ccc2c(Nc3cc(CC(=O)Nc4cccc(F)c4)[nH]n3)ncnc2c1 [AZD2811] + O=C(c1cc(Cc2n[nH]c(=O)c3ccccc23)ccc1F)N1CCN(C(=O)C2CC2)CC1 [Olaparib] (first compound max 1 µM, 7x7, partner max 10 µM)	Bliss excess	0.0466
Cc1cc2ncnn2cc1Nc1ncc2c(n1)n(C1CCOCC1)c(=O)n2C [AZD7648] + O=C(c1cc(Cc2n[nH]c(=O)c3ccccc23)ccc1F)N1CCN(C(=O)C2CC2)CC1 [Olaparib] (first compound max 10 µM, 7x7, partner max 10 µM)	Bliss excess	0.0337
Cc1cc2ncnn2cc1Nc1ncc2c(n1)n(C1CCOCC1)c(=O)n2C [AZD7648] + CCN(CCO)CCCOc1ccc2c(Nc3cc(CC(=O)Nc4cccc(F)c4)[nH]n3)ncnc2c1 [AZD2811] (first compound max 10 µM, 7x7, partner max 1 µM)	Bliss excess	0.0033

[Q] Need Bliss excess, item CCc1c2c(nc3ccc(O)cc13)-c1cc3c(c(=O)n1C2)COC(=O)[C@]3(O)CC [SN-38] + CN(C)CCCOc1ccc(-c2ccc3ncc4c(c3c2)n(C2CCOCC2)c(=O)n4C)cn1 [AZD0156] (first compound max 0.3 µM, 7x7, partner max 1 µM)
[A] 0.0463
